outcome.measure: melting point

{"smiles.representation": "CC(C)c1ncc(-c2cc(-c3ccc(C(=O)O)cc3)cs2)nc1C(C)C", "melting point": "226 to 229 °C"}

Name the reported melting point value associated with the compound CC(C)c1ncc(-c2ccc(-c3ccc(C(=O)O)cc3)n2C(C)C)nc1C(C)C
215 °C (dec.)

Name the reported melting point value associated with the compound O=C(O)c1ccc(NC(=O)c2cnc(C3CCCC3)c(C3CCCC3)n2)cc1
248 to 250 °C

* * *

outcome.measure: melting point

Name the reported melting point value associated with the molecule CC1(C)CC(C)(C)c2nc(-c3ccc(-c4ccc(C(=O)O)cc4)[nH]3)cnc21
269 °C (dec.)

Name the reported melting point value associated with the molecule Cn1c(-c2ccc(C(=O)O)cc2)ccc1-c1cnc2c(n1)C(C)(C)CC2(C)C
218 to 220 °C

Name the reported melting point value associated with the molecule CC(C)c1ncc(-c2cc(-c3ccc(C(=O)O)cc3)c[nH]2)nc1C(C)C
245 °C (dec.)

Name the reported melting point value associated with the molecule Cc1c(-c2ccc(C(=O)O)cc2)cc(-c2cnc3c(n2)C(C)(C)CCC3(C)C)n1C
265 to 267 °C

Name the reported melting point value associated with the molecule CC(C)c1ncc(-c2ccc(-c3ccc(C(=O)O)cc3)[nH]2)nc1C(C)C
246 °C (dec.)

Name the reported melting point value associated with the molecule CC1(C)CC(C)(C)c2nc(-c3cc(-c4ccc(C(=O)O)cc4)c[nH]3)cnc21
145 to 147 °C

Name the reported melting point value associated with the molecule CC1(C)CCC(C)(C)c2nc(-c3cc(-c4ccc(C(=O)O)cc4)cn3Cc3cccnc3)cnc21
263 to 266 °C

Name the reported melting point value associated with the molecule Cn1cc(-c2ccc(C(=O)O)cc2)cc1-c1cnc2c(n1)C(C)(C)CC2(C)C
250 °C (dec.)

Name the reported melting point value associated with the molecule CC1(C)CC(C)(C)c2nc(C(=O)Nc3ccc(C(=O)O)cc3)cnc21
236 to 238 °C

Name the reported melting point value associated with the molecule CC(C)n1cc(-c2ccc(C(=O)O)cc2)cc1-c1cnc2c(n1)C(C)(C)CCC2(C)C
225 to 227 °C

Name the reported melting point value associated with the molecule CC(C)c1nnc(C(=O)Nc2ccc(C(=O)O)cc2)nc1C(C)C
182 to 184 °C

Name the reported melting point value associated with the molecule CC(C)c1ncc(-c2ccc(-c3ccc(C(=O)O)cc3)s2)nc1C(C)C
270 to 272 °C

Name the reported melting point value associated with the molecule CC1(C)CC(C)(C)c2nc(-c3ccc(-c4ccc(C(=O)O)cc4)s3)cnc21
275 °C (dec.)
